src = PubChem BioAssay (NCI)

Provide the reported TGI of each item.
test system: SK-MEL-5 melanoma; assay: NCI tumour cell line growth inhibition, 48 h

structure_string=CO/N=C1/c2sccc2[C@H](NC(=O)CNC(=O)OC(C)(C)C)[C@@H]1O measured_value="> 100 µM"
structure_string=Cc1ccc(C2=Nc3c(c(C)nn3-c3ccccc3)N=C(C(=O)O)C2)cc1 measured_value="> 10 µM"

We now examine a further molecule.
// TGI lookup, key: "O=C1CC[C@H]2CNC(=O)C[C@H]2C1" > 100 µM

====

tested on: SNB-75 CNS; assay: NCI tumour cell line growth inhibition, 48 h
Readout Label: TGI

Below, 5 molecules whose answers are already recorded.
molecule=C/C(=N/NC(=S)Nc1cccc(C)c1)c1ccccn1 measured_value="5.08 µM"
molecule="C1CN2N3CCCC23C1 (stereo not drawn)" measured_value="> 100 µM"
molecule=CN(C)c1ccc(/C(Br)=C2\OC(=O)c3ccccc32)cc1 measured_value="> 100 µM"
molecule="CCC1CCC2CCCC(C)N12 (stereo not drawn)" measured_value="> 100 µM"
molecule=O=C(Cc1ccc(/C=C/C(=O)c2ncc[nH]2)cc1)Nc1ccc(Cl)cc1 measured_value="> 25 µM"

Report TGI for each item below.
1. COC(=O)c1c(OC)cccc1C(=O)O
2. O=C1C(Cl)N(c2ccccc2)C1c1c[nH]c2ccccc12 (stereo not drawn)
3. Cc1nc2ccc([N+](=O)[O-])cc2c(=O)n1C(=S)Nc1cccc(Cl)c1

1. > 100 µM
2. > 100 µM
3. 40.8 µM

====

test system: HOP-18 NSCLC; test: NCI tumour cell line growth inhibition, 48 h
Provide the reported TGI of each item.

molecule=COc1ccc(CNc2nc3ccc(C(F)(F)F)cc3nc2-c2ccccc2)cc1OC measured_value="> 100 µM"
molecule="O=S(=O)(O)C(O)/C=C/c1ccccc1 (configuration not stated)" measured_value="> 100 µM"
molecule=COc1cc([C@@H]2c3cc4c(cc3C[C@H]3COC(=O)[C@@H]32)OCO4)cc(OC)c1OC measured_value="> 50 µM"
molecule=c1ccc(N=c2snc(-c3ccccc3)s2)cc1 measured_value="> 100 µM"
molecule=Cc1nc2nnc(C)n2c2c1C(=O)Nc1ccccc1N2 measured_value="> 100 µM"
molecule="CC(C)=CC1C(C(=O)O)C1(C)C (configuration not stated)" measured_value="> 750 µM"

// TGI lookup, key: "CCOC(=O)CCCO" > 100 µM

====

system: OVCAR-4 ovarian; test: NCI tumour cell line growth inhibition, 48 h
Provide the reported TGI of each item.

Below, 4 compounds whose answers are already recorded.
compound=CN(C)S(=O)(=O)Nc1ccccn1 readout_label=TGI measured_value="> 100 µM"
compound="N#Cc1cnn2ccn(C3OC(COC(=O)c4ccccc4)C(OC(=O)c4ccccc4)C3OC(=O)c3ccccc3)c12 (stereo unspecified)" readout_label=TGI measured_value="> 21.5 µM"
compound=CNC(=O)c1cc(Oc2ccc3c(c2)sc2nc(-c4ccc(N)cc4)cn23)ccn1 readout_label=TGI measured_value="> 100 µM"
compound=C[C@]12CC/C(=N\O)C=C1CC[C@@H]1[C@@H]2CC[C@]2(C)C(=N/O)/C(=C/c3cccnc3)C[C@@H]12 readout_label=TGI measured_value="65.3 µM"

Report TGI for each item below.
1. c1ccc2c(c1)CCCN1CCc3ccccc3C21 (stereo unspecified)
2. CC(C)=CC1C(C(=O)O)C1(C)C (stereo unspecified)
3. O=S(=O)(O)C(O)/C=C/c1ccccc1 (stereo unspecified)
4. Cc1ccc(C(=O)Nc2ccc(CP(=O)(O)O)cc2)cc1NC(=O)c1cccc(NC(=O)Nc2cccc(C(=O)Nc3cc(C(=O)Nc4ccc(CP(=O)(O)O)cc4)ccc3C)c2)c1
5. O=C(O)Cc1c[nH]c2ccc(F)cc12
6. CC(=O)CC(=O)c1cc2c(=O)oc(C)cc2oc1=O
7. COc1cc2c(cc1OC)C(=O)/C(=C/c1cc(C)c(O)c(C)c1)C2
8. COC(=O)c1c(OC)cccc1C(=O)O

1: > 100 µM; 2: > 750 µM; 3: > 100 µM; 4: > 100 µM; 5: > 100 µM; 6: > 37.5 µM; 7: > 100 µM; 8: > 100 µM

Report TGI for each item below.
1. C1CN2N3CCCC23C1 (stereo unspecified)
2. Cn1c(-c2nonc2N)nc2cnccc21
3. c1ccc(N=c2snc(-c3ccccc3)s2)cc1
4. O=C(Nc1ccccc1[N+](=O)[O-])c1ccccc1

> 100 µM
> 25 µM
> 100 µM
> 100 µM

====

tested on: KM12 colon; assay: NCI tumour cell line growth inhibition, 48 h
Provide the reported TGI of each item.

compound=O=C(OCc1ccccc1)OOC(=O)OCc1ccccc1 measured_value="> 100 µM"
compound=Cc1ccc(C2=Nc3c(c(C)nn3-c3ccccc3)N=C(C(=O)O)C2)cc1 measured_value="> 10 µM"
compound=COc1cccc(-c2nn(-c3ccccc3)cc2-c2ccnc(NCCCNS(=O)(=O)c3cccc(F)c3)c2)c1 measured_value="> 100 µM"
compound="CC(=O)OCC1OC(n2c(=S)[nH]c(-c3ccccc3)c(C#N)c2=O)C(OC(C)=O)C(OC(C)=O)C1OC(C)=O (stereo not given)" measured_value="> 100 µM"
compound=COc1cc2c(cc1O)[C@H](Cc1ccc(Oc3cc(C[C@H]4c5cc(OC)c(OC)cc5CCN4C)ccc3OC)cc1)NCC2 measured_value="25.7 µM"

Report TGI for each item below.
1. CC(=O)CC(=O)c1cc2c(=O)oc(C)cc2oc1=O
2. CCOP(=O)(OCC)/C(F)=C/c1ccccc1

1: > 37.5 µM; 2: > 100 µM

Report TGI for each item below.
1. Cc1nc2cc(C(F)(F)F)ccc2[nH]c1=O
2. CC1=C[C@@H]2Cc3occc3C(C)(C)[C@@H]2CC1
3. O=C(Cc1ccc(/C=C/C(=O)c2ncc[nH]2)cc1)Nc1ccc(Cl)cc1
4. CCOc1ccc(N=C/C=C(\Cl)c2ccc3ccccc3c2)cc1
5. Cn1cc(C2=C(c3ccc(OC[C@@H](O)CO)cc3)C(=O)NC2=O)c2ccccc21

1. > 100 µM
2. 33.4 µM
3. 5.23 µM
4. 33.9 µM
5. > 25 µM

Report TGI for each item below.
1. OCCNCO
2. O=C1/C(=C/c2ccc(Br)s2)NC(=S)N1CN1CCOCC1

> 100 µM
> 100 µM

Report TGI for each item below.
1. CN(O)C(=O)Cc1ccc(OCc2cccc(Cl)c2)cc1
2. N#Cc1cnn2ccn(C3OC(COC(=O)c4ccccc4)C(OC(=O)c4ccccc4)C3OC(=O)c3ccccc3)c12 (stereo not given)
3. CCOC(=O)c1c(N)n(-c2ccccc2)c(=S)n(-c2ccccc2)c1=O
4. N#CSCc1cccc(Nc2cc(=O)[nH]c(=O)[nH]2)c1
5. CCOC(=O)c1cnc2[nH]ccn2c1=O
6. OCc1c(-c2cccc3ccccc23)sc(-c2cccc3ccccc23)c1CO

> 100 µM
21.5 µM
> 100 µM
> 100 µM
> 10 µM
26.4 µM

====

system: MDA-MB-435; assay: NCI tumour cell line growth inhibition, 48 h
Readout Label: TGI (µM)
Give bare numbers, in µM.

Report TGI for each item below.
1. C/C(=N/NC(=S)Nc1cccc(C)c1)c1ccccn1
2. N#Cc1nc(-c2ccc(F)cc2)oc1S(=O)(=O)N1CCOCC1

[3.5, 6.9]

====

Provide the reported TGI of each item.
system: CCRF-CEM leukemia; test: NCI tumour cell line growth inhibition, 48 h

Below, 5 compounds whose answers are already recorded.
compound=Cc1cc(C)c2c(n1)S(=O)(=O)N(CCCN1CCN(c3cccc(C(F)(F)F)c3)CC1)/C(=C(\O)c1ccc(Cl)cc1)C2=O target_of_assay="CCRF-CEM leukemia" readout_label=TGI measured_value="> 100 µM"
compound="CCC1CCC2CCCC(C)N12 (centres undefined)" target_of_assay="CCRF-CEM leukemia" readout_label=TGI measured_value="> 100 µM"
compound="CC1=CCCC(OC(N)=O)C1 (centres undefined)" target_of_assay="CCRF-CEM leukemia" readout_label=TGI measured_value="> 100 µM"
compound=O=C(O/N=C1/CCC/C1=C\c1ccccc1)c1ccc([N+](=O)[O-])cc1 target_of_assay="CCRF-CEM leukemia" readout_label=TGI measured_value="> 100 µM"
compound=C[C@]12CC/C(=N\O)C=C1CC[C@@H]1[C@@H]2CC[C@]2(C)C(=N/O)/C(=C/c3cccnc3)C[C@@H]12 target_of_assay="CCRF-CEM leukemia" readout_label=TGI measured_value="> 100 µM"

Report TGI for each item below.
1. CC(=O)OCCc1cccnc1/C=N/O
2. C[C@@H]1C[C@H](O)[C@]2(O)O[C@@H]3C[C@@]4(C=O)[C@@H](CC=C5[C@@H]4CC[C@]4(C)[C@@H](C6=CC(=O)OC6)CC[C@]54O)C[C@H]3O[C@@H]2O1

> 100 µM
0.0161 µM
